Below, each of the molecules is paired with its reported melting point value.

Here's what some known entries look like.
| molecule | melting point |
| --- | --- |
| NS(=O)(=O)c1ccc(-n2nc(C(F)(F)F)c3c2-c2ccccc2CC3)cc1 | 257 to 258 °C |
| CCCN(Cc1ccc(C(=O)NC2Cc3ccccc3C2)cc1)C1CCc2ncsc2C1 (centres undefined) | 65 °C |
| O=C1C(=O)c2ccc(-c3ccccc3)cc2C2=C1SCC1(CCN(C(=O)c3cccc(Cl)c3)CC1)O2 | 240 to 241 °C |
| COc1cc2ncnc(Nc3cccc(Cl)c3F)c2cc1OC1CCN(C(=O)OC(C)(C)C)CC1 | 192 to 194 °C |
| CCNC(=O)Nc1nc2nc(NCCCN(C)C)ncc2cc1-c1c(C)cccc1C | 64 to 70 °C |
| COc1cc([N+](=O)[O-])c(Br)cc1OCc1ccccc1 | 134 to 135 °C |
| O=C(CCl)Nc1ccc2c(c1NC(=O)Cc1ccc(F)cc1)C(=O)c1ccccc1C2=O | 213 to 214 °C |
| Cc1cc(NC(=O)NN(c2ccccc2)c2cccc(C(=N)N)c2)ccc1N1CCCCC1=O | > 300 °C |

Q: What value of melting point has been reported for the following molecule? O=C(O)N1CCN2c3sc4c(c3CN(c3ccccc3Cl)CC12)CC=C4 (centres undefined)
Ans: 315 °C

Q: Same question, COC(=O)C1=C(CO)NC(C)=C(C(=O)OC(C)C)C1c1ccccc1[N+](=O)[O-] (centres undefined) this time
Ans: 135 to 137 °C

Q: Same question, CC(C)(C)c1csc(N)c1C(N)=O this time
Ans: 145 °C

Q: Same question, CCc1cccnc1NC(=O)OC(C)(C)C this time
Ans: 101 to 102 °C

###

Below, each of the molecules is paired with its reported melting point value.

Here's what some known entries look like.
| molecule | melting point |
| --- | --- |
| CCOC(=O)NN=C(c1cccnc1)C1COCOC1 | 132 °C |
| O=C(Nc1cccc(C(F)(F)F)c1)OCC1(COC(=O)Nc2cccc(C(F)(F)F)c2)CSc2ccccc2C1=O | 58 to 63 °C |
| CCOc1ccc(-c2cc3ccccc3[nH]2)cc1OC | 177 °C |
| CCOc1ccc2c(c1)C(=O)N(CCCCBr)S2(=O)=O | 105 to 108 °C |
| Clc1ccc(-n2nc(C3CC3)cc2C2CC2)nn1 | 102 to 105 °C |

Q: What value of melting point has been reported for the following molecule? C#Cc1ccc(C(=O)Cl)cc1
Ans: 32 to 34 °C

Q: Same question, COC(=O)C1=C(C)NC(C)=C(C(=O)O)C1c1ccccc1Cl (stereo not given) this time
Ans: 210 °C

Q: Same question, C=C1COc2c(N3CCN(C)CC3)c(F)cc3c(=O)c(C(=O)O)cn1c23 this time
Ans: 200 to 201 °C

Q: Same question, CC(C)(C)COc1ccc(-n2cc(C(=O)O)cn2)cc1C#N this time
Ans: 199 to 200 °C

Q: Same question, CCOC(=O)C1(C(=O)OCC)CCC2(NCCc3cc(OC)c(OC)cc32)C(C2=NCCc3cc(OC)c(OC)cc32)C1 (stereo not given) this time
Ans: 116 to 118 °C

Q: Same question, CCCCc1nn(-c2ccccc2C(F)(F)F)c(=O)n1Cc1ccc(-c2ccccc2S(=O)(=O)NC(=O)[C@H]2CC2(C)C)cc1 this time
Ans: 93 to 95 °C

Q: Same question, COCOc1ccc(C=CC(=O)c2c(OC)cc(OC)c(CC=C(C)C)c2O)cc1OC this time
Ans: 126 to 127 °C

Q: Same question, CC#CCOc1cccc(S(=O)(=O)N(C)C(C(=O)NO)c2ccc(OCCCNC(=O)OCC)cc2)c1 (stereo not given) this time
Ans: 60 to 62 °C

Q: Same question, CC1=C(c2cccc(C(F)(F)F)c2)n2ncc3c(=O)[nH]c(=S)n(c32)C1 this time
Ans: 269 to 271 °C

Q: Same question, CCC(OC)(c1cccc(OCc2ccc3c(-c4ccoc4)cc(C#N)cc3c2)c1)c1nccs1 (stereo not given) this time
Ans: 156 to 157 °C

Q: Same question, CCc1nnc2c(O)nc3cc(F)ccc3n12 this time
Ans: > 300 °C

Q: Same question, CCSC1(SCC)CCC2C3CCC4=CC(=O)C=CC4(C)C3C(O)CC21C (stereo not given) this time
Ans: 163 to 165 °C
